GI50 reference
system: SN12C; assay: Antitumor activity against human SN12C cells after 48 hrs; format: functional
Measured parameter: GI50 (nM)

| Molecule | Reported value |
| --- | --- |
| COc1cc(/C(C#N)=C/c2ccc3ccccc3n2)cc(OC)c1OC | 627 |
| COc1cc(OC)cc(/C(C#N)=C/c2ccc3ccccc3n2)c1 | 661 |
| COc1cc(OC)cc(/C(C#N)=C/c2cnc3ccccc3c2)c1 | 661 |
| COc1cc(/C(C#N)=C/c2cnc3ccccc3c2)cc(OC)c1OC | 1940 |

---

Reported values of GI50 for individual entries
test system: 786-0; experiment: Antitumor activity against human 786-0 cells after 48 hrs; format: functional; details: 786-0, 48 h
Measured parameter: GI50 (nM)

| Molecule | Measured parameter | Reported value |
| --- | --- | --- |
| COc1cc(OC)cc(/C(C#N)=C/c2cnc3ccccc3c2)c1 | GI50 | 484 |
| COc1cc(/C(C#N)=C/c2cnc3ccccc3c2)cc(OC)c1OC | GI50 | 6290 |
| COc1cc(OC)cc(/C(C#N)=C/c2ccc3ccccc3n2)c1 | GI50 | 501 |
| COc1cc(/C(C#N)=C/c2ccc3ccccc3n2)cc(OC)c1OC | GI50 | 445 |

---

system: SK-MEL-28; assay: Antitumor activity against human SK-MEL-28 cells after 48 hrs; type: functional; conditions: SK-MEL-28, 48 h
Measured parameter: GI50 (nM)

| Molecule | Measured parameter | Reported value |
| --- | --- | --- |
| COc1cc(/C(C#N)=C/c2ccc3ccccc3n2)cc(OC)c1OC | GI50 | 518 |
| COc1cc(OC)cc(/C(C#N)=C/c2cnc3ccccc3c2)c1 | GI50 | 1400 |
| COc1cc(OC)cc(/C(C#N)=C/c2ccc3ccccc3n2)c1 | GI50 | 896 |
| COc1cc(/C(C#N)=C/c2cnc3ccccc3c2)cc(OC)c1OC | GI50 | 3270 |

---

tested on: HCT-15; assay: Antitumor activity against human HCT15 cells after 48 hrs; assay type: functional; conditions: HCT-15, 48 h
Measured parameter: GI50 (nM)

| Molecule | Measured parameter | Reported value |
| --- | --- | --- |
| COc1cc(/C(C#N)=C/c2cnc3ccccc3c2)cc(OC)c1OC | GI50 | 1080 |
| COc1cc(OC)cc(/C(C#N)=C/c2cnc3ccccc3c2)c1 | GI50 | 455 |
| COc1cc(/C(C#N)=C/c2ccc3ccccc3n2)cc(OC)c1OC | GI50 | 319 |
| COc1cc(OC)cc(/C(C#N)=C/c2ccc3ccccc3n2)c1 | GI50 | 409 |

---

tested on: CCRF-CEM; experiment: Antitumor activity against human CCRF-CEM cells after 48 hrs; assay type: functional
Measured parameter: GI50

| Molecule | Reported value |
| --- | --- |
| COc1cc(OC)cc(/C(C#N)=C/c2ccc3ccccc3n2)c1 | 332 nM |
| COc1cc(/C(C#N)=C/c2cnc3ccccc3c2)cc(OC)c1OC | 1380 nM |
| COc1cc(/C(C#N)=C/c2ccc3ccccc3n2)cc(OC)c1OC | 248 nM |
| COc1cc(OC)cc(/C(C#N)=C/c2cnc3ccccc3c2)c1 | 332 nM |

---

tested on: NCI-H460; experiment: Antitumor activity against human NCI-H460 cells after 48 hrs; format: functional; conditions: NCI-H460, 48 h

| Molecule | GI50 / nM |
| --- | --- |
| COc1cc(/C(C#N)=C/c2cnc3ccccc3c2)cc(OC)c1OC | 2050 |
| COc1cc(OC)cc(/C(C#N)=C/c2ccc3ccccc3n2)c1 | 339 |
| COc1cc(OC)cc(/C(C#N)=C/c2cnc3ccccc3c2)c1 | 362 |
| COc1cc(/C(C#N)=C/c2ccc3ccccc3n2)cc(OC)c1OC | 361 |

---

tested on: KM12; experiment: Antitumor activity against human KM12 cells after 48 hrs; format: functional; settings: KM12, 48 h
Each item that follows carries a reported GI50.
Measured parameter: GI50 (nM)

| Molecule | Measured parameter | Reported value |
| --- | --- | --- |
| COc1cc(/C(C#N)=C/c2ccc3ccccc3n2)cc(OC)c1OC | GI50 | 350 |
| COc1cc(OC)cc(/C(C#N)=C/c2ccc3ccccc3n2)c1 | GI50 | 425 |
| COc1cc(/C(C#N)=C/c2cnc3ccccc3c2)cc(OC)c1OC | GI50 | 436 |
| COc1cc(OC)cc(/C(C#N)=C/c2cnc3ccccc3c2)c1 | GI50 | 409 |

---

test system: HT-29; experiment: Antitumor activity against human HT-29 cells after 48 hrs; type: functional; settings: HT-29, 48 h
// values below are reported GI50

| Molecule | GI50 [nM] |
| --- | --- |
| COc1cc(/C(C#N)=C/c2cnc3ccccc3c2)cc(OC)c1OC | 421 |
| COc1cc(/C(C#N)=C/c2ccc3ccccc3n2)cc(OC)c1OC | 240 |
| COc1cc(OC)cc(/C(C#N)=C/c2cnc3ccccc3c2)c1 | 362 |
| COc1cc(OC)cc(/C(C#N)=C/c2ccc3ccccc3n2)c1 | 367 |

---

system: MDA-MB-435; assay: Antitumor activity against human MDA-MB-435 cells after 48 hrs; assay type: functional; conditions: MDA-MB-435, 48 h
Measured parameter: GI50 (nM)

| Molecule | Measured parameter | Reported value |
| --- | --- | --- |
| COc1cc(/C(C#N)=C/c2ccc3ccccc3n2)cc(OC)c1OC | GI50 | 33 |
| COc1cc(/C(C#N)=C/c2cnc3ccccc3c2)cc(OC)c1OC | GI50 | 227 |
| COc1cc(OC)cc(/C(C#N)=C/c2cnc3ccccc3c2)c1 | GI50 | 53 |
| COc1cc(OC)cc(/C(C#N)=C/c2ccc3ccccc3n2)c1 | GI50 | 147 |

---

tested on: UACC-62; experiment: Antitumor activity against human UACC62 cells after 48 hrs; type: functional; conditions: UACC-62, 48 h

| Molecule | Subject of test | Uom | GI50 |
| --- | --- | --- | --- |
| COc1cc(OC)cc(/C(C#N)=C/c2ccc3ccccc3n2)c1 | UACC-62 | nM | 449 |
| COc1cc(/C(C#N)=C/c2ccc3ccccc3n2)cc(OC)c1OC | UACC-62 | nM | 92 |
| COc1cc(OC)cc(/C(C#N)=C/c2cnc3ccccc3c2)c1 | UACC-62 | nM | 357 |
| COc1cc(/C(C#N)=C/c2cnc3ccccc3c2)cc(OC)c1OC | UACC-62 | nM | 478 |

---

Known GI50 of a selection of compounds
experiment: Antitumor activity against human Hs578T cells after 48 hrs; type: functional; details: Hs-578T
Measured parameter: GI50 (nM)

| Molecule | Reported value |
| --- | --- |
| COc1cc(OC)cc(/C(C#N)=C/c2cnc3ccccc3c2)c1 | 715 |
| COc1cc(/C(C#N)=C/c2ccc3ccccc3n2)cc(OC)c1OC | 689 |
| COc1cc(/C(C#N)=C/c2cnc3ccccc3c2)cc(OC)c1OC | 1310 |
| COc1cc(OC)cc(/C(C#N)=C/c2ccc3ccccc3n2)c1 | 700 |

---

test system: OVCAR-5; assay: Antitumor activity against human OVCAR5 cells after 48 hrs; format: functional; settings: OVCAR-5, 48 h
The entries below are paired with their reported GI50.

| Molecule | Subject of test | Uom | GI50 |
| --- | --- | --- | --- |
| COc1cc(/C(C#N)=C/c2cnc3ccccc3c2)cc(OC)c1OC | OVCAR-5 | nM | 3940 |
| COc1cc(/C(C#N)=C/c2ccc3ccccc3n2)cc(OC)c1OC | OVCAR-5 | nM | 580 |
| COc1cc(OC)cc(/C(C#N)=C/c2cnc3ccccc3c2)c1 | OVCAR-5 | nM | 587 |
| COc1cc(OC)cc(/C(C#N)=C/c2ccc3ccccc3n2)c1 | OVCAR-5 | nM | 716 |

---

assay: Antitumor activity against human SF295 cells after 48 hrs; type: functional; details: SF-295, 48 h

| Molecule | Uom | GI50 |
| --- | --- | --- |
| COc1cc(/C(C#N)=C/c2ccc3ccccc3n2)cc(OC)c1OC | nM | 277 |
| COc1cc(OC)cc(/C(C#N)=C/c2ccc3ccccc3n2)c1 | nM | 341 |
| COc1cc(OC)cc(/C(C#N)=C/c2cnc3ccccc3c2)c1 | nM | 243 |
| COc1cc(/C(C#N)=C/c2cnc3ccccc3c2)cc(OC)c1OC | nM | 556 |

---

assay: Antitumor activity against human MOLT4 cells after 48 hrs; format: functional; conditions: MOLT-4, 48 h
Documented GI50 across a set of compounds

| Molecule | GI50 [nM] |
| --- | --- |
| COc1cc(OC)cc(/C(C#N)=C/c2cnc3ccccc3c2)c1 | 378 |
| COc1cc(/C(C#N)=C/c2ccc3ccccc3n2)cc(OC)c1OC | 488 |
| COc1cc(OC)cc(/C(C#N)=C/c2ccc3ccccc3n2)c1 | 419 |
| COc1cc(/C(C#N)=C/c2cnc3ccccc3c2)cc(OC)c1OC | 3200 |

Values compiled from ChEMBL document CHEMBL3585283.
